- ASSAY_REMARKS: Acute toxicity in mouse assessed as mortality rate at 200 mg/kg, ip by karber method
- Assay type: organism-based
- ASSAY_CONDITIONS: in vivo, read-out: Activity
EXPERIMENTAL_READOUT: mortality (%)

- MOL_SMILES: "NCCCC[C@@H](NC(=O)[C@H](N)Cc1c[nH]c2ccccc12)C(=O)N[C@H](Cc1c[nH]c2ccccc12)C(=O)N[C@H](CCCCN)C(=O)N[C@H](Cc1c[nH]c2ccccc12)C(=O)N[C@@H](CC(N)=O)C(=O)NCC(=O)N[C@H](Cc1c[nH]c2ccccc12)C(=O)N[C@H](CCCCN)C(=O)N[C@H](Cc1c[nH]c2ccccc12)C(=O)N[C@H](CCCCN)C(=O)N[C@H](Cc1c[nH]c2ccccc12)C(N)=O"
  EXPERIMENTAL_READOUT: "mortality"
  MEASURED: 20

Value source: ChEMBL document CHEMBL5543109
